Measured log fold change Tl+ flux, listed per entry for reference.
# Test system: R275C/beta2Delta
# ASSAY NAME: modulators of BK channel variants, profiling panel, selectivity assay, cell-based, U2OS BacMam, thallium flux, beta subunits (AID 1259406);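 further: initial slope of Thallos dye fluorescence rise after thallium is added; log ratio against the mean of 0.3% DMSO vehicle wells on the same plate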
# EXPERIMENTAL CONDITIONS: at 30 µM
Calls of active or inactive are those of the source.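 How the source made its calls: active means thallium flux through the channel raised or lowered by more than 3 SD from vehicle-only wells, actives on both sides; inactive means the rest.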
ASSAY ENDPOINT: log fold change Tl+ flux

{"MOLECULE": "Clc1cc(Cl)cc(Nc2ncnc(-n3cccc3)n2)c1", "TESTED SYSTEM": "R275C/beta2Delta", "ASSAY ENDPOINT": "log fold change Tl+ flux", "MEASUREMENT": "0.0395 (inactive)"}
{"MOLECULE": "O=C(O)C(Cc1ccccc1[N+](=O)[O-])=NNc1ccccc1", "TESTED SYSTEM": "R275C/beta2Delta", "ASSAY ENDPOINT": "log fold change Tl+ flux", "MEASUREMENT": "0.0201 (inactive)"}
{"MOLECULE": "FC(F)(F)c1cc(-c2noc(-c3ccc4c(c3)CCO4)n2)cc(C(F)(F)F)c1", "TESTED SYSTEM": "R275C/beta2Delta", "ASSAY ENDPOINT": "log fold change Tl+ flux", "MEASUREMENT": "0.182 (active)"}
{"MOLECULE": "COc1ccc(CNCc2cc(OC)c(OC)c(OC)c2)cc1", "TESTED SYSTEM": "R275C/beta2Delta", "ASSAY ENDPOINT": "log fold change Tl+ flux", "MEASUREMENT": "-0.0892 (active)"}
{"MOLECULE": "CN(C)C=Nc1cc(Cl)c(-n2cccc2)cc1Oc1ccc(Cl)cc1", "TESTED SYSTEM": "R275C/beta2Delta", "ASSAY ENDPOINT": "log fold change Tl+ flux", "MEASUREMENT": "-0.0155 (inactive)"}
{"MOLECULE": "Cc1cc(CNCC(O)C(F)(F)F)no1 (configuration not stated)", "TESTED SYSTEM": "R275C/beta2Delta", "ASSAY ENDPOINT": "log fold change Tl+ flux", "MEASUREMENT": "-0.018 (inactive)"}
{"MOLECULE": "Cc1ccc(C(C)NC(=O)c2ccc(Cl)c(Cl)c2)c(C)c1 (configuration not stated)", "TESTED SYSTEM": "R275C/beta2Delta", "ASSAY ENDPOINT": "log fold change Tl+ flux", "MEASUREMENT": "-0.00757 (inactive)"}
{"MOLECULE": "CC(C)n1c(SCC(=O)c2ccccc2)nc2cc(Cl)ccc21", "TESTED SYSTEM": "R275C/beta2Delta", "ASSAY ENDPOINT": "log fold change Tl+ flux", "MEASUREMENT": "-0.0838 (active)"}
{"MOLECULE": "O=C(Nc1c(S(=O)(=O)c2ccccc2)csc1Br)c1ccccc1Cl", "TESTED SYSTEM": "R275C/beta2Delta", "ASSAY ENDPOINT": "log fold change Tl+ flux", "MEASUREMENT": "-0.0307 (inactive)"}
{"MOLECULE": "Cc1cccc(CCN2CCC(C(=O)c3ccc(NS(C)(=O)=O)cc3)CC2)n1", "TESTED SYSTEM": "R275C/beta2Delta", "ASSAY ENDPOINT": "log fold change Tl+ flux", "MEASUREMENT": "-0.0466 (inactive)"}
{"MOLECULE": "COc1cccc(C=NNC(=O)C2CCCN(C(=S)NNC3CC4C=CC3C4)CC2)c1O (configuration not stated)", "TESTED SYSTEM": "R275C/beta2Delta", "ASSAY ENDPOINT": "log fold change Tl+ flux", "MEASUREMENT": "-0.0281 (inactive)"}
{"MOLECULE": "O=C1CSCC(=O)N1c1csc(C(F)(F)F)c1-c1ccccc1", "TESTED SYSTEM": "R275C/beta2Delta", "ASSAY ENDPOINT": "log fold change Tl+ flux", "MEASUREMENT": "0.0241 (inactive)"}
{"MOLECULE": "OC(Cc1ccccc1)(c1ccccc1)c1ccccc1N=Cc1ccc2c(c1)OCO2 (configuration not stated)", "TESTED SYSTEM": "R275C/beta2Delta", "ASSAY ENDPOINT": "log fold change Tl+ flux", "MEASUREMENT": "-0.0661 (inactive)"}
{"MOLECULE": "CC1(C)CC(=O)C=C(NCCCCCCCCNC2=CC(=O)CC(C)(C)C2)C1", "TESTED SYSTEM": "R275C/beta2Delta", "ASSAY ENDPOINT": "log fold change Tl+ flux", "MEASUREMENT": "-0.0562 (inactive)"}
{"MOLECULE": "C[C@H]1O[C@H](O[C@H]2[C@H](O)[C@@H](O)[C@@H](O[C@H]3[C@H](O)[C@@H](O)C(O)O[C@@H]3CO)O[C@@H]2CO)[C@H](O)[C@@H](O)[C@@H]1N[C@H]1C=C(CO)[C@@H](O)[C@H](O)[C@H]1O (some centres not stated)", "TESTED SYSTEM": "R275C/beta2Delta", "ASSAY ENDPOINT": "log fold change Tl+ flux", "MEASUREMENT": "-0.0417 (inactive)"}
{"MOLECULE": "CCc1ccc(C(=O)Nc2cccc(S(N)(=O)=O)c2)cc1", "TESTED SYSTEM": "R275C/beta2Delta", "ASSAY ENDPOINT": "log fold change Tl+ flux", "MEASUREMENT": "-0.0306 (inactive)"}
{"MOLECULE": "O=C(Cn1ccc(C(F)(F)F)n1)c1ccc(Cl)cc1", "TESTED SYSTEM": "R275C/beta2Delta", "ASSAY ENDPOINT": "log fold change Tl+ flux", "MEASUREMENT": "-0.0132 (inactive)"}
{"MOLECULE": "C/C(=C\\C(=O)OCCCCCCCCC(=O)O)C[C@@H]1OC[C@H](C[C@@H]2O[C@H]2[C@@H](C)[C@H](C)O)[C@@H](O)[C@H]1O", "TESTED SYSTEM": "R275C/beta2Delta", "ASSAY ENDPOINT": "log fold change Tl+ flux", "MEASUREMENT": "-0.0137 (inactive)"}
{"MOLECULE": "COC(=O)c1cc(S(=O)(=O)N(Cc2ccc(OC)cc2)Cc2cccn2C)oc1C", "TESTED SYSTEM": "R275C/beta2Delta", "ASSAY ENDPOINT": "log fold change Tl+ flux", "MEASUREMENT": "-0.122 (active)"}
{"MOLECULE": "COc1cccc(C(=O)Nc2cc(F)c(Br)cc2F)c1", "TESTED SYSTEM": "R275C/beta2Delta", "ASSAY ENDPOINT": "log fold change Tl+ flux", "MEASUREMENT": "-0.0756 (inactive)"}
{"MOLECULE": "COC(=O)c1ccc(C=Cc2cccc(Cl)c2)s1", "TESTED SYSTEM": "R275C/beta2Delta", "ASSAY ENDPOINT": "log fold change Tl+ flux", "MEASUREMENT": "-0.00722 (inactive)"}
{"MOLECULE": "O=C(NC(=O)C12CC3CC(CC(C3)C1)C2)Nc1ccc(Cl)cc1", "TESTED SYSTEM": "R275C/beta2Delta", "ASSAY ENDPOINT": "log fold change Tl+ flux", "MEASUREMENT": "-0.0163 (inactive)"}
{"MOLECULE": "COC(=O)c1c(S(=O)(=O)N2CCOCC2)c(C)n(C)c1C", "TESTED SYSTEM": "R275C/beta2Delta", "ASSAY ENDPOINT": "log fold change Tl+ flux", "MEASUREMENT": "0.108 (active)"}
{"MOLECULE": "CCOC(=O)Cn1c(=O)ccc2c(C)cc(C)nc21", "TESTED SYSTEM": "R275C/beta2Delta", "ASSAY ENDPOINT": "log fold change Tl+ flux", "MEASUREMENT": "0.00136 (inactive)"}
{"MOLECULE": "CNC(=O)Oc1ccc2c(c1)[C@]1(C)CCN(C)C1N2C (some centres not stated)", "TESTED SYSTEM": "R275C/beta2Delta", "ASSAY ENDPOINT": "log fold change Tl+ flux", "MEASUREMENT": "-0.0145 (inactive)"}
{"MOLECULE": "Cc1nn(-c2ccccc2)nc1CNC(=O)COc1ccccc1", "TESTED SYSTEM": "R275C/beta2Delta", "ASSAY ENDPOINT": "log fold change Tl+ flux", "MEASUREMENT": "0.0169 (inactive)"}
{"MOLECULE": "CC12CCC(=O)C=C1CCC1C2CCC2(C)C1CCC2(O)C(=O)CO (configuration not stated)", "TESTED SYSTEM": "R275C/beta2Delta", "ASSAY ENDPOINT": "log fold change Tl+ flux", "MEASUREMENT": "-0.0755 (inactive)"}
{"MOLECULE": "NC(=NNC(=O)c1cccnc1)c1ccncc1", "TESTED SYSTEM": "R275C/beta2Delta", "ASSAY ENDPOINT": "log fold change Tl+ flux", "MEASUREMENT": "0.00736 (inactive)"}
{"MOLECULE": "Clc1ccc(-n2nnnc2-c2cccnc2)c(Cl)c1", "TESTED SYSTEM": "R275C/beta2Delta", "ASSAY ENDPOINT": "log fold change Tl+ flux", "MEASUREMENT": "-0.00811 (inactive)"}
{"MOLECULE": "Cc1cc(C)n2nc(Sc3ncccc3[N+](=O)[O-])nc2n1", "TESTED SYSTEM": "R275C/beta2Delta", "ASSAY ENDPOINT": "log fold change Tl+ flux", "MEASUREMENT": "-0.00322 (inactive)"}
{"MOLECULE": "CC(C)CC(NC(=O)C(COC(C)(C)C)NC(=O)C(Cc1ccc(O)cc1)NC(=O)C(CO)NC(=O)C(Cc1c[nH]c2ccccc12)NC(=O)C(Cc1cnc[nH]1)NC(=O)C1CCC(=O)N1)C(=O)N[C@@H](CCCN=C(N)N)C(=O)N1CCCC1C(=O)NNC(N)=O (some centres not stated)", "TESTED SYSTEM": "R275C/beta2Delta", "ASSAY ENDPOINT": "log fold change Tl+ flux", "MEASUREMENT": "-0.00625 (inactive)"}
{"MOLECULE": "O=S(=O)(Oc1ccc(F)cc1F)c1cccc(S(=O)(=O)Oc2ccc(F)cc2F)c1", "TESTED SYSTEM": "R275C/beta2Delta", "ASSAY ENDPOINT": "log fold change Tl+ flux", "MEASUREMENT": "-0.0138 (inactive)"}
{"MOLECULE": "O=C(CCN1CCOCC1)Nc1cc(Cl)cc(Cl)c1", "TESTED SYSTEM": "R275C/beta2Delta", "ASSAY ENDPOINT": "log fold change Tl+ flux", "MEASUREMENT": "0.0272 (inactive)"}
{"MOLECULE": "Cc1c(O)nc2ccccn2c1=O", "TESTED SYSTEM": "R275C/beta2Delta", "ASSAY ENDPOINT": "log fold change Tl+ flux", "MEASUREMENT": "0.00886 (inactive)"}
{"MOLECULE": "COc1cc(N)c(Cl)cc1C(=O)N[C@@H]1CCN(CCCOc2ccc(F)cc2)C[C@@H]1OC", "TESTED SYSTEM": "R275C/beta2Delta", "ASSAY ENDPOINT": "log fold change Tl+ flux", "MEASUREMENT": "0.039 (inactive)"}
{"MOLECULE": "Clc1ccc(-c2cnc(-c3ccc(Cl)cc3)o2)cc1", "TESTED SYSTEM": "R275C/beta2Delta", "ASSAY ENDPOINT": "log fold change Tl+ flux", "MEASUREMENT": "0.0163 (inactive)"}
{"MOLECULE": "NCC(O)c1ccc(O)c(O)c1 (configuration not stated)", "TESTED SYSTEM": "R275C/beta2Delta", "ASSAY ENDPOINT": "log fold change Tl+ flux", "MEASUREMENT": "-0.0293 (inactive)"}
{"MOLECULE": "O=C(O)CSCC(=O)Nc1ccc(-c2nc3ccccc3s2)cc1", "TESTED SYSTEM": "R275C/beta2Delta", "ASSAY ENDPOINT": "log fold change Tl+ flux", "MEASUREMENT": "0.0724 (inactive)"}
{"MOLECULE": "CCC(C)(C)N=C(NC#N)Nc1cccnc1", "TESTED SYSTEM": "R275C/beta2Delta", "ASSAY ENDPOINT": "log fold change Tl+ flux", "MEASUREMENT": "-0.00288 (inactive)"}
{"MOLECULE": "CN(C)C1C(=O)C(C(N)=O)=C(O)C2(O)C(=O)C3=C(O)c4c(O)ccc(Cl)c4C(O)C3CC12 (configuration not stated)", "TESTED SYSTEM": "R275C/beta2Delta", "ASSAY ENDPOINT": "log fold change Tl+ flux", "MEASUREMENT": "-0.203 (active)"}
{"MOLECULE": "CCCCCCCCCCCCSC(=S)NCC1CCCO1 (configuration not stated)", "TESTED SYSTEM": "R275C/beta2Delta", "ASSAY ENDPOINT": "log fold change Tl+ flux", "MEASUREMENT": "0.0322 (inactive)"}
{"MOLECULE": "O=C(OC1C[C@@H]2CC3C[C@H](C1)N2CC3=O)c1c[nH]c2ccccc12 (some centres not stated)", "TESTED SYSTEM": "R275C/beta2Delta", "ASSAY ENDPOINT": "log fold change Tl+ flux", "MEASUREMENT": "0.00308 (inactive)"}
